Data credit: patent US8461328B2

target-system: JAK3 (Homo sapiens)
Construct: made in house; host or cells: SF9 insect cells (baculovirus)
Sequence (P52333 783-1124): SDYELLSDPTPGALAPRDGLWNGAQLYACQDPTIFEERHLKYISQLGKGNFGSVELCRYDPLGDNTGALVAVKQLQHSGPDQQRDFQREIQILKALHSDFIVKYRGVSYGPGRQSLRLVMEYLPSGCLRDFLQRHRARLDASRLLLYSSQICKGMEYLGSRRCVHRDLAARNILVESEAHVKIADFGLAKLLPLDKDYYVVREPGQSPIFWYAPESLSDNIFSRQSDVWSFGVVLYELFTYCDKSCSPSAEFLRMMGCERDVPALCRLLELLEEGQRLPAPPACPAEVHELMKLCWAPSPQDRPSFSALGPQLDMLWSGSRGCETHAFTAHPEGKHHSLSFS
method-summary: JAK3 inhibition (Table 4)
Type: biochemical
experimental-context: read-out: JAK3 Ki
measured-endpoint: pKi
Scale: pKi equals -log10([C]), with [C] in mol/L.

Record excerpt, results attached:
N#CCCn1cc2c(n1)CCC(n1cnc3cnc4[nH]ccc4c31)C2 (racemic): 6.96
N#CCC1(N2CCC(n3cnc4cnc5[nH]ccc5c43)CC2)COC1: 7.56
CS(=O)(=O)NCc1nc2cnc3[nH]ccc3c2n1C1CC2CCC1O2 (single isomer, unassigned) [Example 849]: 6.23
CN1CCOCC1C(=O)N1CCC(n2cnc3cnc4[nH]ccc4c32)CC1 (single isomer, unassigned) [Example 197a]: 5.72
O=CN1CCC(n2cnc3cnc4[nH]ccc4c32)C(F)(F)C1 (stereo not shown): 6.99
CC(C)(C)OC(=O)N[C@@H]1CC[C@@H](n2nnc3cnc4[nH]ccc4c32)C1: 7.13

Continue with the compound presented below.
Data request: Please tell me: pKi of "CN(C)CCC(=O)N1CCC(n2cnc3cnc4[nH]ccc4c32)CC1" , system JAK3 (Homo sapiens)?
Data returned: 5.96

====

target-system: JAK2 (Homo sapiens)
Construct: made in house; host or cells: SF9 insect cells (baculovirus)
Sequence (O60674 812-1132): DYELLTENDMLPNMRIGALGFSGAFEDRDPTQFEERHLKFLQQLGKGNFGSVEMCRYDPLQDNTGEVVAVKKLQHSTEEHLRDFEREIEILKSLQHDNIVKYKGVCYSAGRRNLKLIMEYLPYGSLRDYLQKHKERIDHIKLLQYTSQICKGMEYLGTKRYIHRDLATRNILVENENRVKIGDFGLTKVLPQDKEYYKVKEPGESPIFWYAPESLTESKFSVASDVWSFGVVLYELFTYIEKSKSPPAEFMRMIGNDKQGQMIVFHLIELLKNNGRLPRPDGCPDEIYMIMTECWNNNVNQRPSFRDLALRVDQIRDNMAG
method-summary: JAK2 inhibition (Table 4)
Format: biochemical
experimental-context: read-out: JAK2 Ki
Recorded Ki for the following compounds
Write the value in µM as a bare number.

Record excerpt, results attached:
CC(C)C(=O)NCCc1nc2cnc3[nH]ccc3c2n1C1CCN(CCC#N)CC1 [Example 378]: 0.0484
C[C@H](O)c1nc2cnc3[nH]ccc3c2n1[C@@H]1CCCN(C(=O)CC(F)(F)F)C1 [Example 782]: 1.47
Cc1nc2cnc3[nH]ccc3c2n1C1CCS(=O)(=O)CC1 [Example 210]: 0.642
CS(=O)(=O)NCc1nc2cnc3[nH]ccc3c2n1C1CCCCC1 [Example 200]: 0.0454
O=S1(=O)CCCN1Cc1nc2cnc3[nH]ccc3c2n1C1CCCCC1 [Example 696]: 0.0668
CC(=O)NCc1nc2cnc3[nH]ccc3c2n1C1CCCCC1 [Example 918]: 0.0939
N#Cc1ccc(S(=O)(=O)N2CC[C@@H](n3cnc4cnc5[nH]ccc5c43)C2)cc1 [Example 433]: 0.0876
CC1CN(Cc2ccccc2)CCC1n1cnc2cnc3[nH]ccc3c21 (racemic) [Example 149]: 0.00161

Continue with the compound presented below.
Data request: Which Ki value is on record for CC(=O)N1CCC(c2nc3cnc4[nH]ccc4c3n2C2CCN(C(C)CC#N)CC2)CC1 (racemic) [Example 400] ?
Data returned: 0.115

====

Record set of pKi for target or system TYK2 (Homo sapiens, UniProt P29597).
Scale: pKi equals -log10([C]), with [C] in mol/L.

Record excerpt, results attached:
CC(O)c1nc2cnc3[nH]ccc3c2n1C1CCN(CCC(F)(F)F)CC1 (stereo not drawn) [Example 759]: 6.96
CC(=O)NCc1nc2cnc3[nH]ccc3c2n1C1CCN(CCC#N)CC1 [Example 492]: 6.68

Data request: Please tell me: pKi of N#CCCN1CCC(n2c(Cn3cccn3)nc3cnc4[nH]ccc4c32)CC1 [Example 205] , system TYK2 (Homo sapiens, UniProt P29597)?
Data returned: 7.06

Data request: Same again, this time with O=C(c1ccccc1)N1CCC(n2cnc3cnc4[nH]ccc4c32)CC1 [Example 35]
Data returned: 6.78

Data request: Same again, this time with c1cc2c(ncc3ncn(C4CCCCNC4)c32)[nH]1 (single isomer, unassigned) [Example 110a]
Data returned: 6.97

Data request: Same again, this time with O=C(c1ccccc1)N1CCC[C@@H](n2cnc3cnc4[nH]ccc4c32)C1 [Example 6]
Data returned: 6.87

Data request: Same again, this time with N#CCCN1CCC(n2c(CC3CCCC3)nc3cnc4[nH]ccc4c32)CC1 [Example 116]
Data returned: 6.49

Data request: Same again, this time with CC(C)(C)OC(=O)NC1CC(n2cnc3cnc4[nH]ccc4c32)C1 (stereo not drawn) [Example 317]
Data returned: 7.02

Data request: Same again, this time with Cc1nc2cnc3[nH]ccc3c2n1[C@H]1CC[C@@H](C(=O)O)CC1 [Example 420]
Data returned: 7.54

Data request: Same again, this time with CC(F)(F)CCc1nc2cnc3[nH]ccc3c2n1C1CCN(CCC#N)CC1 [Example 817]
Data returned: 6.68

Data request: Same again, this time with Cc1nc2cnc3[nH]ccc3c2n1C1CCN(Cc2cccnc2)CC1 [Example 283]
Data returned: 7.30

Data request: Same again, this time with O=C1CCCN1CCc1nc2cnc3[nH]ccc3c2n1C1CCCCC1 [Example 801]
Data returned: 7.19

Data request: Same again, this time with Cc1nc2cnc3[nH]ccc3c2n1C1CN2CCC1CC2 (stereo not drawn) [Example 928]
Data returned: 6.05
